- method: APR_HepG2_p53Act_24hr: Apredica 24-hour HepG2 Assay for p53 Activation (AID 2282913);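 further: p53 protein immunofluorescence averaged per cell in HepG2 with Hoechst nuclei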
- details: high-content imaging, actives raise or lower the signal
Calls of active or inactive are those of the source. How the source made its calls: active means hit-call score of the fitted dose curve at least 0.9, where 1 is the maximum; inactive means score below 0.9.
Outcomes: Y = active, N = inactive

sample_smiles=O=C(NC(=O)c1cc(F)c(F)cc1Cl)Nc1cc(F)ccc1N1CCC(C(=O)O)CC1 cat=N
sample_smiles=CC1=C2C[C@H]3[C@@H](CC=C4C[C@@H](O)CC[C@@]43C)[C@@H]2CC[C@]12O[C@@H]1C[C@H](C)CN[C@H]1[C@H]2C cat=N
sample_smiles=Oc1c(Cl)c(Cl)c(Cl)c(Cl)c1Cl cat=N
sample_smiles=CCC(C)(c1ccc(O)cc1)c1ccc(O)cc1 cat=Y
sample_smiles=O=C(NC(=O)c1c(F)cccc1F)Nc1cc(Cl)c(OC(F)(F)C(F)F)c(Cl)c1 cat=N
sample_smiles=CCOCCOC(C)=O cat=N
sample_smiles=CC(C)(O)C(=O)Nc1ccc([N+](=O)[O-])c(C(F)(F)F)c1 cat=N
sample_smiles=O=C(N[C@H]1CN2CCC1CC2)c1cc2ccoc2cn1 cat=N
sample_smiles=ClC1=C(Cl)[C@]2(Cl)[C@@H]3[C@@H]4C[C@@H]([C@H]5O[C@@H]45)[C@@H]3[C@@]1(Cl)C2(Cl)Cl cat=N
sample_smiles=Oc1ccc(Cl)cc1Cl cat=N
sample_smiles=O=NN(c1ccccc1)c1ccccc1 cat=N

###

- Read-out: succinate dehydrogenase complex iron sulfur subunit B (SDHB), SDHB (gene 6390)
- method: LTEA_HepaRG_SDHB: Life Technologies and Expression Analysis (LTEA) Assay for succinate dehydrogenase complex iron sulfur subunit B (SDHB) using HepaRG (AID 2283528)
- details: mRNA level, 48 h; actives raise or lower the signal
Calls of active or inactive are those of the source. Rule for the calls: active = hit-call score of the fitted dose curve at least 0.9, where 1 is the maximum; inactive = score below 0.9.
Outcomes: active, inactive

sample_smiles=COc1ccc(O)c(C(C)(C)C)c1 cat=inactive
sample_smiles=ClC(Cl)=C(c1ccc(Cl)cc1)c1ccc(Cl)cc1 cat=inactive
sample_smiles=Oc1c(Cl)c(Cl)c(Cl)c(Cl)c1Cl cat=active
sample_smiles=Oc1ccc(C(c2ccc(O)cc2)(C(F)(F)F)C(F)(F)F)cc1 cat=inactive
sample_smiles=O=C(NC(=O)c1c(F)cccc1F)Nc1cc(Cl)c(OC(F)(F)C(F)F)c(Cl)c1 cat=inactive
sample_smiles=CC1=C2C[C@H]3[C@@H](CC=C4C[C@@H](O)CC[C@@]43C)[C@@H]2CC[C@]12O[C@@H]1C[C@H](C)CN[C@H]1[C@H]2C cat=inactive

###

- target system: Peroxisome proliferator-activated receptor gamma (Homo sapiens)
- method: ATG_PPARg_TRANS: Attagene TRANS-FACTORIAL HepG2 Assay for human Peroxisome Proliferator-activated Receptor-gamma (PPARg) (AID 2283007)
Results filed as inconclusive are left out. The source made the active and inactive calls. Rule for the calls: active = hit-call score of the fitted dose curve at least 0.9, where 1 is the maximum; inconclusive = response in the unintended direction; inactive = score below 0.9.
reported property: AC50

sample_smiles=O=C(NC(=O)c1cc(F)c(F)cc1Cl)Nc1cc(F)ccc1N1CCC(C(=O)O)CC1 target_system="Peroxisome proliferator-activated receptor gamma (Homo sapiens)" result="954 nM (active)"
sample_smiles=CCC(=O)O[C@H]1CC[C@H]2[C@@H]3CCC4=CC(=O)CC[C@]4(C)[C@H]3CC[C@]12C target_system="Peroxisome proliferator-activated receptor gamma (Homo sapiens)" result=inactive
sample_smiles=Nc1ccc(-c2ccc(N)cc2)cc1 target_system="Peroxisome proliferator-activated receptor gamma (Homo sapiens)" result=inactive
sample_smiles=N#Cc1ccc(N(CC(N)=O)CC(F)(F)F)cc1C(F)(F)F target_system="Peroxisome proliferator-activated receptor gamma (Homo sapiens)" result=inactive
sample_smiles=CCOP(=S)(OCC)SCSC(C)(C)C target_system="Peroxisome proliferator-activated receptor gamma (Homo sapiens)" result=inactive
sample_smiles=CCNc1nc(NC(C)C)nc(SC)n1 target_system="Peroxisome proliferator-activated receptor gamma (Homo sapiens)" result=inactive
